- TARGET ENTITY: glucose-6-phosphate translocase (Rattus norvegicus, UniProt F7EWB7)
- Construct: using intact male rat liver microsomes; tissue BD Gentest (Becton Dickinson); host or cells: male Sprague Dawley rat liver microsomes
- Sequence (F7EWB7 1-429): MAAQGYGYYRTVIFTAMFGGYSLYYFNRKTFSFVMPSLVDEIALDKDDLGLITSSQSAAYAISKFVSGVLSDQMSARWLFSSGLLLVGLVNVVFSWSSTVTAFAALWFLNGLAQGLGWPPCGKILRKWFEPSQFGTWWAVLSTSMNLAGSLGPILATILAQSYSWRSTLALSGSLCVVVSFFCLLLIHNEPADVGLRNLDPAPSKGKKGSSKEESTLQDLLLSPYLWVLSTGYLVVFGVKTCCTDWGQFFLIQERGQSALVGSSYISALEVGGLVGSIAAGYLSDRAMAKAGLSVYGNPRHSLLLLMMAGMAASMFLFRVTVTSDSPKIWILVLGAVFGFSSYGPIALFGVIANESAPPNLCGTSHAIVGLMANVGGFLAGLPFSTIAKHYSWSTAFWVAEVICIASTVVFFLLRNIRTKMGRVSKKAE
- ASSAY PROCEDURE: G6Pase activity assay in intact male rat liver microsomes (colorimetric inorganic phosphate)
- Format: biochemical
- RECORDED CONDITIONS: 10–50 μM range
MEASURED METRIC: Inhibition of G6Pase activity

COMPOUND	MEASURED METRIC	RESULT
Cc1c(C(=O)O)c(O)cc2c1C(=O)c1c(O)cccc1C2=O [DMAC, reference compound]	Inhibition of G6Pase activity	not
Cc1c(C(=O)O)c(O)cc2c1C(=O)c1c(O)cc(O)cc1C2=O	Inhibition of G6Pase activity	not

----------
- TARGET ENTITY: glucose-6-phosphate translocase (Rattus norvegicus)
- Construct: using intact male rat liver microsomes; tissue BD Gentest (Becton Dickinson); host or cells: male Sprague Dawley rat liver microsomes
- ASSAY PROCEDURE: G6Pase activity assay in intact male rat liver microsomes (colorimetric inorganic phosphate)
- Format: biochemical
- RECORDED CONDITIONS: 1 mM glucose-6-phosphate
MEASURED METRIC: Inhibition of G6Pase activity of the microsome (Figure 7B)

COMPOUND	RESULT
Cc1c(C(=O)O)c(O)cc2c1C(=O)c1c(O)cccc1C2=O [DMAC, reference compound]	No inhibition
Cc1c(C(=O)O)c(O)cc2c1C(=O)c1c(O)cc(O)cc1C2=O [Compound 7]	No inhibition
